Test: Human HepG2 cell viability assay in 384 well format
Assay type: toxicity, cell-based
Set-up: dose 125 nL, time 70.5 hour; concentration not given beside the values
Details: HepG2 cells, read-out: Inhibition
Readout Name: cytotoxicity at 70.5 h (%)
One number for each entry, in %.

List the reported cytotoxicity at 70.5 h of each molecule below.
1. O=C(CNC(=O)N1CCc2c([nH]c3ccc(Cl)cc23)C1)NC1CCCC1
2. COC(=O)CC(C)(C)CC(=O)N1CCC(C(F)(F)F)CC1

1. -0.711
2. 1.71

List the reported cytotoxicity at 70.5 h of each molecule below.
1. CN(C)S(=O)(=O)N1CCC(c2ccncc2)CC1
2. COc1c(CNCCNC(=O)c2ccc(C)cc2)c(C(C)C)nn1C

1: -10.2; 2: -8.14

List the reported cytotoxicity at 70.5 h of each molecule below.
1. CC1CCCN(Cc2c(C3CC3)n(CC(=O)N(C)C)c3ncccc23)C1 (centres undefined)
2. Cn1c(CCN2CCN(CCc3ccccc3)CC2)nc2ccccc21
3. CCOCCNC(=O)c1ccc(OC)cc1I

27.3
-6.23
-6.65

List the reported cytotoxicity at 70.5 h of each molecule below.
1. CCc1nc(C)c(CN2CCN(c3ncnc4c(C)csc34)CC2)[nH]1
2. CCCC(O)CN1CC(C)(C)CN(C(=O)c2ccc(Cl)cc2)CC1=O (centres undefined)
3. CN(C)C(=O)Cc1ccc(NCc2nccn2C)cc1
4. O=C(Cn1ccc2c(Cl)cccc21)N1CCC2(CC1)OCCO2
5. Cc1csc(N2CCN(Cc3cccnc3)CC2C)n1 (centres undefined)
6. OCC(O)CSCc1cc(Cl)ccc1Cl (centres undefined)

1. -14
2. -9.8
3. -2.12
4. -4.3
5. -19.6
6. -3.91

List the reported cytotoxicity at 70.5 h of each molecule below.
1. Cc1ncccc1OC1(C(=O)NCCc2ccccn2)CCNCC1
2. COC(=O)CC(C1=Cc2ccccc2OC1)c1oc(C)cc(=O)c1O (centres undefined)
3. COC(=O)c1ccc2c(c1)CCCN2S(=O)(=O)c1cn(C)c(C)n1
4. Cc1noc(CNC(=O)NCC2(C)CCCc3ccccc32)n1 (centres undefined)
5. Cc1cc(C)cc(CNCCS(=O)(=O)N2CCOCC2)c1

1. 13.7
2. 19.3
3. 1.33
4. -8.6
5. 33.6

List the reported cytotoxicity at 70.5 h of each molecule below.
1. CN1CCN(Cc2cn3c(n2)CN(Cc2ccc(F)cc2)CC3)CC1
2. N#Cc1cccc(C(=O)N2CCC(Nc3cccnn3)CC2)c1
3. COC(=O)c1cc(CN2CCN(c3nc(C)cnc3C)CC2)ccc1O
4. c1ccc2c(c1)CC(N1CCCN(Cc3cccc4nonc34)CC1)C2
5. Fc1cnc(N2C[C@H]3CN(Cc4cccc(F)c4)C[C@H]3C2)nc1
6. COc1cnc(CN2CCN(CC(C)C)C(=O)C2C)cc1O (centres undefined)

1. -9.1
2. -19.9
3. -1.95
4. 21.6
5. -13.6
6. 0.0157

---

Assay: Human HepG2 cell viability assay in 384 well format
Assay type: toxicity, cell-based
Set-up: dose 125 nL, time 70.5 hour; concentration not given beside the values
Details: HepG2 cells, read-out: Inhibition
Readout Name: cytotoxicity at 70.5 h (%)
Numbers only, in %.

Previously resolved entries follow.
Entry under review: `CCc1nc(C)cn1C(=O)Nc1ccc(C)cc1` . Reported cytotoxicity at 70.5 h? -1.55

Here is the next compound: `Cc1n[nH]c(C)c1NC(=O)Nc1cccnc1N1CCCC1` 12.8

Here is the next compound: `CCCN(CC(=O)OC)S(=O)(=O)c1cnc2c(c1)c(C)nn2C` -7.82

Here is the next compound: Cc1cc(C(F)(F)F)nn1C(C)C(=O)Nc1ccc(Cl)cn1 (stereo not drawn) -6.74

Here is the next compound: `CN(C)C(=O)[C@@H]1C[C@@H]2[C@@H](CCN2Cc2nccs2)O1` -5.24

Here is the next compound: CN(CCCC#N)C1CCCN(Cc2noc(C3CC3)n2)C1 (stereo not drawn) 9.15

List the reported cytotoxicity at 70.5 h of each compound below.
1. CCc1ncncc1C(=O)Nc1ccc2ccn(CCN(C)C)c2c1
2. N#CCCCn1nnc(C2(NC(=O)c3ccccc3)CCCC2)n1
3. CCc1noc(CS(=O)(=O)Cc2ccccc2Cl)n1
4. Cc1c(C2CCOC(C)(C)C2)nc(N)c(C#N)c1-c1ccc(O)cc1 (stereo not drawn)

1. -9.77
2. -1.12
3. -6.3
4. 11.3

List the reported cytotoxicity at 70.5 h of each compound below.
1. CCNC(=O)[C@@H]1C[C@H](N)CN1c1cc(C(F)(F)F)nc(N(C)C)n1
2. COc1ccc(OC)c(CN(C)c2ncc(S(N)(=O)=O)s2)c1
3. CCN(CC)C1COc2c(cc(Br)c(C)c2C)C1=O (stereo not drawn)
4. CCc1cccc(NC(=O)NC2CCc3nc(C)nn3C2)c1 (stereo not drawn)
5. NC(=O)c1ccc(N2CCN(Cc3ccc(F)cc3Cl)CC2)nn1
6. COc1ccccc1OCC(=O)NCC(C)(O)c1ccccc1 (stereo not drawn)
7. CC1(C(=O)NCc2cccnc2Oc2ccc(F)cc2F)CCCNC1 (stereo not drawn)

1: 37.1; 2: -10.9; 3: -6.45; 4: 13.8; 5: -9.22; 6: -12.5; 7: -18.2

List the reported cytotoxicity at 70.5 h of each compound below.
1. Cc1cc(C)n(CCC(=O)N2CCCC(c3cc(C(N)=O)[nH]n3)C2)n1 (stereo not drawn)
2. COc1ccc(C2=CCN(C(=O)CN(C)Cc3ccoc3)CC2)cc1
3. Cc1ccc(CN2CC[C@@]3(O)CCN(S(=O)(=O)N(C)C)C[C@H]3C2)cc1C
4. O=C(C1CCCC1)N1CC(c2nc(Cc3ccccc3)no2)C1
5. CC(=O)c1c(F)cccc1N1CCC(C(N)=O)CC1

1. 29.3
2. 49.4
3. -16
4. -14.5
5. -1.92

Entry under review: `O=S(=O)(C1CC1)N1C[C@H](Oc2ccccn2)[C@H]2OCCC[C@H]21` . Reported cytotoxicity at 70.5 h? -0.632

---

Assay: Human HepG2 cell viability assay in 384 well format
Assay type: toxicity, cell-based
Design: dose 125 nL, time 70.5 hour; concentration not given beside the values
Conditions: HepG2 cells, read-out: Inhibition
Can you tell me cytotoxicity at 70.5 h for the items I'm about to list?
Give bare numbers, in %.

Previously resolved entries follow.
Entry under review: `O=C(C1CC(F)(F)C1)N1C[C@@H]2CN(CC3CC3)CCO[C@@H]2C1` . Reported cytotoxicity at 70.5 h? 26

Here is the next compound: c1ccc(-c2cnc(CNC3CCc4ncnn4C3)o2)cc1 (stereo unspecified) 0.0931

Here is the next compound: `CNC(=O)CN1CCOCC12CCN(Cc1ccncc1)CC2` -16.2

Here is the next compound: COCC(NC(=O)NCc1ccc(C)c(F)c1)c1ccco1 (stereo unspecified) 1.44

Here is the next compound: `CNCC(=O)Nc1ccc(-c2cnc(NCCS(C)(=O)=O)nc2)cc1` -0.605

---
Entry under review: O=C(NCC1CCOC1)c1ccc(-c2ccccc2)[nH]c1=O (stereo unspecified) . Reported cytotoxicity at 70.5 h? -7.11

---

Test: Human HepG2 cell viability assay in 384 well format
Type: toxicity, cell-based
Parameters: dose 125 nL, time 70.5 hour; concentration not given beside the values
Details: HepG2 cells, read-out: Inhibition
Readout Name: cytotoxicity at 70.5 h (%)
One number for each entry, in %.

Previously resolved entries follow.
Entry under review: `CC(C)(C)C(=O)CN1Cc2ccccc2NCCC1=O` . Reported cytotoxicity at 70.5 h? 0.78

Here is the next molecule: CCc1ncc(C(=O)N(C)C(C)c2ccc3c(c2)OCCO3)cn1 (stereo unspecified) 1.19

Here is the next molecule: `Cc1noc(C)c1CS(=O)(=O)CC(=O)N(C)Cc1cccc(F)c1` -3.7

Here is the next molecule: `CC(C)CC(=O)Nc1ccccc1Oc1ccsc1C(=O)O` -2.03

Here is the next molecule: Cc1ccc(C2CCCN2Cc2nc3c(cnn3C)c(=O)[nH]2)cc1C (stereo unspecified) -15.6

Here is the next molecule: COc1cc(OC)cc(N2CCC(NCc3cccs3)C2=O)c1 (stereo unspecified) -0.0615

Here is the next molecule: `COC(=O)[C@@H]1Cc2[nH]cnc2CN1Cc1cc2ccccc2o1` -2.5

Here is the next molecule: `Cc1nc(C)c(C)c(N2CCC(NCCOc3ccccc3)CC2)n1` 17.8

List the reported cytotoxicity at 70.5 h of each molecule below.
1. Cc1nc(CN(C)C(=O)c2cc(C)sc2NC(=O)C(C)(C)C)no1
2. COCC(=O)N1CCn2c(COc3cccnc3)cnc2C1C (stereo unspecified)
3. CN1CCN([C@@H]2CCN(C(N)=O)[C@H]2Cc2ccccc2)CC1

1. -11.2
2. 6.09
3. -0.0899
